Listed below: IC50 values for each entry.
target: human CCR7 (Homo sapiens); construct: expressed in transfected cells; assay: CCL19-induced calcium mobilization assay, U87.CD4 cells expressing CCR7; format: cell-based; settings: CCL19-induced calcium signaling; read-out: IC50 [μM] block CCL19 induced calcium signaling

compound=CN(C)C(=O)c1cccc(NCC(=O)N(C)C2CCCCC2)c1 observedvalue="> 10 µM"

Using known records, supply IC50 for CCc1cccc(NC(=S)NNC(=O)c2cccc([N+](=O)[O-])c2)c1
> 30 µM

Provide one value: measured IC50 of COC(=O)c1ccc([C@H]2CC(=O)Nc3c2cnn3Cc2ccco2)cc1
> 50 µM

Specify IC50 for N=C(Nc1ccc(Br)cc1)C(N)=Nc1ccc(Br)cc1 and stop.
> 10 µM

Provide IC50 value for the following compound: Cc1cnn(C[C@@H]2CCCN2C(=O)[C@H](C(C)C)n2cncn2)c1
> 50 µM

Provide measured IC50 value, entry: CC(C)[C@@H]1OCCC[C@@H]1Nc1cc(N2CC[C@H](OCc3ccccn3)C2)ncn1
> 50 µM

Look up and report measured IC50 for this entry: CC(C)[C@@H](NC(=O)CCN1CCCCCC1=O)c1ccccc1 [C112, CC(C)[C@@H](NC(=O)CCN1CCCCCC1=O)c1ccccc1]
> 50 µM

For the compound CC(O)CNc1c(NCc2ccc3c(c2)OCO3)c(=O)c1=O (centres unmarked) , give its reported IC50.
> 50 µM

* * *

target: human CCR7 (Homo sapiens); construct: expressed in transfected cells; assay: CCL19-induced calcium mobilization assay, U87.CD4 cells expressing CCR7; format: cell-based; conditions: CCL19-induced calcium signaling; read-out: IC50 [μM] block CCL19 induced calcium signaling
As shown below, each of these compounds has a reported IC50 value.

Solved cases (7 shown):
compound="O=C1NC[C@H](C(=O)N(Cc2ccco2)C2CC2)N1 [C151, O=C1NC[C@H](C(=O)N(Cc2ccco2)C2CC2)N1]" observedvalue="> 50 µM"
compound="C[S@+]([O-])c1cccc(NC(=O)NCC2(c3cccc(F)c3)CC2)c1 [C130]" observedvalue="> 50 µM"
compound="CN(C)C1(CNc2c(N3CCN(Cc4ccccc4Cl)CC3)c(=O)c2=O)CCCC1 [C015]" observedvalue="> 50 µM"
compound="CC(Nc1c(NCc2ccc3c(c2)OCO3)c(=O)c1=O)c1ccccc1 (centres unmarked) [C013]" observedvalue="> 50 µM"
compound="O=C1NCCN1CCNC(=S)Nc1cc(C(F)(F)F)cc(C(F)(F)F)c1 [C034]" observedvalue="> 30 µM"
compound="O=S1(=O)N=C(NCCN2CCCC2)C(NCCN2CCCC2)=N1 [C150]" observedvalue="> 50 µM"
compound="CN(C)C(=O)c1cccc(NC(=O)NCCC2=CCCCC2)c1 [C127, CN(C)C(=O)c1cccc(NC(=O)NCCC2=CCCCC2)c1]" observedvalue="> 50 µM"

// moving on: another record for IC50
Specify reported IC50 for the compound shown: Cc1ccnc(NC(=S)NC(=O)c2cccc3ccccc23)c1 [C032, Cc1ccnc(NC(=S)NC(=O)c2cccc3ccccc23)c1]
> 30 µM

* * *

Below: a set of entries, each annotated with reported IC50.
target: human CCR7 (Homo sapiens); construct: expressed in transfected cells; experiment: CCL19-induced calcium mobilization assay, U87.CD4 cells expressing CCR7; assay type: cell-based; conditions: CCL19-induced calcium signaling; read-out: IC50 [μM] block CCL19 induced calcium signaling

As a guide, the following entries are already answered.
molecule=CS(=O)(=O)c1ccc(-c2cccc(NC(=O)[C@H]3CCCO3)c2)nn1 observedvalue="> 50 µM"
molecule="Cc1ccc(NC=C2C(=O)CC(c3ccco3)CC2=O)cc1 (centres unmarked)" observedvalue="> 10 µM"
molecule=CN(C)C(=O)Cn1cccc(NC(=O)CCC(C)(C)c2ccccc2)c1=O observedvalue="> 50 µM"
molecule=O=C(NCc1ccccc1)c1cn(C2CN(C(=O)C3CC3)C2)nn1 observedvalue="> 50 µM"

Give me measured IC50, please, for this molecule: CC(C)[C@@H](Nc1nccc(CCC(F)(F)F)n1)c1nccn1C
> 50 µM

* * *

biological target: human CCR7 (Homo sapiens, UniProt P32248); construct: expressed in transfected cells; assay: CCL19-induced calcium mobilization assay, U87.CD4 cells expressing CCR7; type: cell-based; details: CCL19-induced calcium signaling; read-out: IC50 [μM] block CCL19 induced calcium signaling
parameter: IC50

Quick one: give measured IC50 for CC(C)Cc1cc(C(=O)N(Cc2ccccc2Cl)C(C)C)nc(=O)[nH]1 [C142]
> 50 µM

Please look at this molecule and report its IC50: COc1ccc2ccccc2c1CNc1c(N2CCSCC2)c(=O)c1=O [C004, COc1ccc2ccccc2c1CNc1c(N2CCSCC2)c(=O)c1=O]
> 50 µM

Identify IC50 associated with the molecule CC1CCCCN1C(=O)CNc1ccc(Cl)c(C(=O)N(C)C)c1 (centres unmarked) [C073, CC1CCCCN1C(=O)CNc1ccc(Cl)c(C(=O)N(C)C)c1]
> 10 µM

In one line, give reported IC50 of the entry CCOC(=O)NC(=S)Nc1ncccn1 [C045, S=C(NC(OCC)=O)NC1=NC=CC=N1] .
> 30 µM

Identify IC50 associated with the molecule Cn1ncc(NC(=S)Nc2ccccc2C(F)(F)F)c1C(N)=O [C037, Cn1ncc(NC(=S)Nc2ccccc2C(F)(F)F)c1C(N)=O]
> 30 µM

Give the reported IC50 for this molecule. Cc1ccc(NC2=NC(=O)SC2=Cc2ccco2)cc1 [C078, Cc1ccc(NC2=[NH+]C(=O)SC2=Cc2ccco2)cc1]
> 10 µM

State its IC50: O=C1C[C@H](NC(=O)CCn2cccn2)CN1 [C145, O=C1C[C@H](NC(=O)CCn2cccn2)CN1]
> 50 µM

Quickly give me recorded IC50 for CCCNC(=O)CNc1ccc(C)c(C(=O)N(C)C)c1 [C066, CCCNC(=O)CNc1ccc(C)c(C(=O)N(C)C)c1]
> 10 µM

Please indicate IC50 recorded for CN(C)CCNC(=S)Nc1cc(C(F)(F)F)cc(C(F)(F)F)c1 [C041]
> 50 µM

Give the value of IC50 reported for the following: CN(Cc1ccccc1N[C@H]1CCN(C)C1=O)C(=O)c1cccs1 [C124]
> 50 µM

Note down IC50 recorded for Cc1ccc(C(NC(=O)Nc2ccc(C(N)=O)c(Cl)c2)C(C)(C)C)o1 (centres unmarked) [C056]
> 10 µM

* * *

Biological target: human CCR7 (Homo sapiens, UniProt P32248)
Construct: expressed in transfected cells
Sequence (P32248 25-378): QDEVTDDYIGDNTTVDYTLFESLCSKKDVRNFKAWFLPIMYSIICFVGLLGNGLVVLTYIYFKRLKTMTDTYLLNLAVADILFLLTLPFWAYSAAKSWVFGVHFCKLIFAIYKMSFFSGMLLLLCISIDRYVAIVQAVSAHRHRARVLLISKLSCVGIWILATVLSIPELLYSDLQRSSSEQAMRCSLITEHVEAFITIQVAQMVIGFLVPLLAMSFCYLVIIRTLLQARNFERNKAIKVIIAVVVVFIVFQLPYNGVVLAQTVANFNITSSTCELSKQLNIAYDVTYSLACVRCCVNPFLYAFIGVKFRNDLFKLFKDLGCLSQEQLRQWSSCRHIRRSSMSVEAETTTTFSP
Assay: CCL19-induced calcium mobilization assay, U87.CD4 cells expressing CCR7
Assay type: cell-based
Settings: CCL19-induced calcium signaling; read-out: IC50 [μM] block CCL19 induced calcium signaling
Quick reference: IC50 of the listed items.

Example results:
compound="COCCN(Cc1cccs1)C(=O)N[C@@H](C)c1ccc(C)o1 [C141, COCCN(Cc1cccs1)C(=O)N[C@@H](C)c1ccc(C)o1]" measurementtarget="human CCR7 (Homo sapiens, UniProt P32248)" observedvalue="> 50 µM"
compound=FC(F)(F)c1cccc(Cn2cnc(NC(=S)NCCc3ccccc3)n2)c1 measurementtarget="human CCR7 (Homo sapiens, UniProt P32248)" observedvalue="> 30 µM"

Identify measured IC50 corresponding to O=c1c(NCC2COc3ccccc3O2)c(N2CCSCC2)c1=O (centres unmarked)
> 50 µM

Let me know recorded IC50 for Cc1sc(NC(=S)NC(=O)CCc2ccccc2)c(C(N)=O)c1C , thanks.
> 30 µM

* * *

target: human CCR7 (Homo sapiens, UniProt P32248); construct: expressed in transfected cells; experiment: CCL19-induced calcium mobilization assay, U87.CD4 cells expressing CCR7; format: cell-based; details: CCL19-induced calcium signaling; read-out: IC50 [μM] block CCL19 induced calcium signaling
Overview of reported IC50 across a group of compounds:

Below are worked cases with known answers.
compound="C[C@@H](NC(=O)c1nnc(-c2ccc(S(=O)(=O)N(C)C)cc2)o1)c1ccccn1 [C092]" observedvalue="> 50 µM"
compound="CCNC(=O)CNc1ccc(C)c(C(=O)N(C)C)c1 [C072, CCNC(=O)CNc1ccc(C)c(C(=O)N(C)C)c1]" observedvalue="> 10 µM"
compound="Cc1cccc(CN2CCC[C@H](Nc3ccc(C)c(C)c3)C2)n1 [C083]" observedvalue="> 50 µM"

Provide one value: measured IC50 of Cc1ccc(CNC(=O)c2nnc(-c3ccc(S(=O)(=O)N(C)C)cc3)o2)o1 [C088]
> 50 µM

State, in one line, measured IC50 of FC(F)(F)c1ccccc1NC(=S)Nc1ccn(Cc2ccc(Cl)cc2)n1 [C031]
> 30 µM
